Task for the reader: assign each of the following binders its reported % Blocking.
- study-target: T1, human chemokine (C-C motif) receptor 8 (CCR8) (human, UniProt P51685 1-355)
- T1 construct: On human peripheral blood lymphocytes / PBMC (native) or on human CCR8 GFP-transfected Ba/F3 cells; also called hCCR8; human CCR8
- T1 sequence (P51685 whole entry): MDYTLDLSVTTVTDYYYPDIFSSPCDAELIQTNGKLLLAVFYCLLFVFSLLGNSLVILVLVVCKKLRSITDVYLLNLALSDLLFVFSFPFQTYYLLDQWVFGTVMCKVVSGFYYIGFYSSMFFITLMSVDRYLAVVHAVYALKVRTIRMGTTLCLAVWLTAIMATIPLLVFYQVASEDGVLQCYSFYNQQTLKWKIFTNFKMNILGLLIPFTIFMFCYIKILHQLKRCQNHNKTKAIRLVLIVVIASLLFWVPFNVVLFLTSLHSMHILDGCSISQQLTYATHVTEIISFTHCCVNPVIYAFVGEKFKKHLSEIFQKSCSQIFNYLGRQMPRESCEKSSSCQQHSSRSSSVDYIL
- assay-method-text: flow cytometry blocking, PBMC CCR8+ CD4+ cells; competitor PE-AB15 (its MFI is read)
Field: numeric (%). Do not append units.

Challenge: What measured % Blocking goes with AB12 (antibody, V domains shown, Hybridoma monoclonal; also called antibody 12; clone 12) VH: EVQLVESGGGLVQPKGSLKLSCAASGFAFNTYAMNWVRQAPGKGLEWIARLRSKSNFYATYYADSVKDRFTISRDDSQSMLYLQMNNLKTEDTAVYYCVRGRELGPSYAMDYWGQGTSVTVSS VL: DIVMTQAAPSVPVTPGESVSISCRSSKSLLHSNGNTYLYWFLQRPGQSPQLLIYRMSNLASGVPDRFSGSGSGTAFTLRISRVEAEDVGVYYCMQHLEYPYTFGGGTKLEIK ?
Response given: 7.39

Challenge: What measured % Blocking goes with AB2 (antibody, V domains shown, Hybridoma monoclonal; also called antibody 2; clone 2) VH: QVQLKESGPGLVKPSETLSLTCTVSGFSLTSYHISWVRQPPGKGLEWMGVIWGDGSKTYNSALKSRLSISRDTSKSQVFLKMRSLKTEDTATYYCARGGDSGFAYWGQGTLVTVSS VL: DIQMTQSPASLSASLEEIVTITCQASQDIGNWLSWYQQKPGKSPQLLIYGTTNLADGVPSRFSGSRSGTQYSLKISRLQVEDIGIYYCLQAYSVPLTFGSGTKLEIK ?
Response given: -7.83

Challenge: What measured % Blocking goes with AB8 (antibody, V domains shown, Hybridoma monoclonal; also called antibody 8; clone 8) VH: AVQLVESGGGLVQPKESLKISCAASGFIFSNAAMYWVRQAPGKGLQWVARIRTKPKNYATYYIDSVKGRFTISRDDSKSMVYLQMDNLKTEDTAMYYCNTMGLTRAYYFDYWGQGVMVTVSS VL: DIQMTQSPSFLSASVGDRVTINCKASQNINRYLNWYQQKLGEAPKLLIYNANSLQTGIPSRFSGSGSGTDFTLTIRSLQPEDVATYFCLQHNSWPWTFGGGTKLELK ?
Response given: -56.6
